- TEST NAME: qHTS for Inhibitors of human tyrosyl-DNA phosphodiesterase 1 (TDP1): qHTS in cells in presence of CPT; also: nearly all actives have a fitted effect of over 55% in size; also: potency is read from the fitted curve at half-maximal effect
- SETTINGS: chicken DT40 Tdp1-/-;hTDP1 cells + 20 nM CPT, ATP luminescence, 48 h; series mostly up to 46.2 µM
Among all 420,000 compounds or so, about 50,000 (12%) were called active. About 26% were inconclusive and are not listed. The list comes from a sample in which actives are over-represented; it also holds close analogues and randomly drawn compounds.
READOUT NAME: Potency

Would you please look over these solved cases?
# MOLECULE, Potency
records = [
    ("COc1ccc(CNC(=O)CN2CCC(n3nnc4cc(F)ccc43)CC2)cc1", "inactive"),
    ("FC(F)(F)c1nc(-c2ccccc2)ncc1-c1nnnn1-c1ccccc1", "20.6 µM (active)"),
    ("c1ccc(-n2nnnc2-c2cccnc2)cc1", "inactive"),
    ("CCOC(=O)[C@]12CCC=C1N(Cc1ccco1)C(=O)[C@H](CC(=O)N1CCSCC1)C2", "inactive"),
]

Now consider a different molecule.
// returns reported Potency for input `CCOc1ccc(S(=O)(=O)N(CC(=O)NCCSCc2ccc(C)cc2)c2ccccc2)cc1`
inactive

====

- TEST NAME: qHTS for Inhibitors of human tyrosyl-DNA phosphodiesterase 1 (TDP1): qHTS in cells in presence of CPT; also: nearly all actives have a fitted effect of over 55% in size; also: potency is read from the fitted curve at half-maximal effect
- SETTINGS: chicken DT40 Tdp1-/-;hTDP1 cells + 20 nM CPT, ATP luminescence, 48 h; series mostly up to 46.2 µM
The whole screen tested about 420,000 compounds, of which about 50,000 (12%) were called active. Inconclusive results (about 26%) are left out. This excerpt belongs to a sample that is enriched for actives.
READOUT NAME: Potency

Would you please look over these solved cases?
# COMPOUND, Potency
measured = [
    ("CCN1C(=O)/C(=C\\N2CCN(c3cccc(Cl)c3)CC2)SC1=S", "inactive"),
    ("COC(=O)Cn1nc(-c2ccccc2)c2cc(Cl)ccc21", "inactive"),
    ("Cc1cc(C(=O)OCC(=O)N2C(C)CCCC2C)c2ccccc2n1 (configuration not stated)", "inactive"),
    ("Cc1nc(=O)c(-c2ccccc2)c(C)n1-c1ccc(Br)cc1", "inactive"),
    ("O=C(C(=O)N1CCN(c2ccccc2)CC1)c1ccc2c(c1)OCO2", "inactive"),
]

// returns reported Potency for input COc1ccc(CCNC(=O)C(=O)NCC2OCCN2S(=O)(=O)c2ccc(OC)c(C)c2)cc1 (configuration not stated)
18.4 µM (active)

// returns reported Potency for input `O=C(N/N=C/c1c[nH]c2ccccc12)c1ccccc1O`
inactive

// returns reported Potency for input `NC(N)=Nc1nc(-c2ccccc2)c2cc(Cl)ccc2n1`
16.4 µM (active)

// returns reported Potency for input `Nc1cc(=O)nc(SCc2ccccc2)n1Cc1ccco1`
inactive

// returns reported Potency for input COc1ccc(S(=O)(=O)N2CCOC2CNC(=O)C(=O)NCc2ccncc2)cc1C (configuration not stated)
inactive

// returns reported Potency for input COc1ccc(C(CC(=O)N2CCN(c3ccccc3)CC2)c2c(O)cc(OC)cc2OC)cc1 (configuration not stated)
inactive

// returns reported Potency for input COc1cc(OC)c2ccc(=O)oc2c1C(CCN1CCN(c2ccccc2)CC1)c1ccc2c(c1)OCO2 (configuration not stated)
23.1 µM (active)

// returns reported Potency for input `CCc1nn(CCCN2CCN(c3cccc(Cl)c3)CC2)c(=O)n1CCOc1ccccc1`
11.6 µM (active)

====

- TEST NAME: qHTS for Inhibitors of human tyrosyl-DNA phosphodiesterase 1 (TDP1): qHTS in cells in presence of CPT; also: nearly all actives have a fitted effect of over 55% in size
- SETTINGS: chicken DT40 Tdp1-/-;hTDP1 cells + 20 nM CPT, ATP luminescence, 48 h; series mostly up to 46.2 µM
Screen size: about 420,000 compounds; about 50,000 (12%) were called active. About 26% were inconclusive and are not listed. Calls follow the shape of the dose curve; as a rule, active = well fitted inhibition curve with a large enough effect; inconclusive = small, poorly fitted or top-dose-only effect; inactive = flat fitted curve, though single readings scatter. The full list was thinned out, with actives kept by preference.
The categories you may choose from are active, inactive

Worked examples, 3 compounds total:
# COMPOUND, CLASS
rows = [
    ("S=c1[nH]nc(-c2cccs2)n1/N=C/c1cccs1", "inactive"),
    ("O=C(COc1ccccc1O)NC1CCCC1", "inactive"),
    ("Cn1c(=O)c2c(nc(OCc3cccnc3)n2Cc2ccccc2)n(C)c1=O", "active"),
]

Field: next compound
Outcome logged for `COc1ccc(CCNC(=O)Nc2ccc3c(c2)c(=O)n(C)n3C)cc1OC` in this assay:
inactive

====

- TEST NAME: qHTS for Inhibitors of human tyrosyl-DNA phosphodiesterase 1 (TDP1): qHTS in cells in presence of CPT; also: nearly all actives have a fitted effect of over 55% in size; also: potency is read from the fitted curve at half-maximal effect
- SETTINGS: chicken DT40 Tdp1-/-;hTDP1 cells + 20 nM CPT, ATP luminescence, 48 h; series mostly up to 46.2 µM
- Description: Human tyrosyl-DNA phosphodiesterase 1 (TDP1) is a novel repair gene, and we propose to use it as a new target for anticancer drug development. […] For the primary screen, Tdp1-/-;hTDP1 cells will be exposed to small molecules in the presence or absence of CPT, and their growth kinetics will be evaluated after 48 hours by measuring ATP activity. […] The hit compounds will then be evaluated in the presence or absence of CPT using Tdp1-/- cells. […]
In all, about 420,000 compounds went through this assay and about 50,000 (12%) were called active. Another 26% or so got no clear call; they are omitted. The sample holds actives, similar compounds and a random draw of the others, so the mix is not that of the screen.
READOUT NAME: Potency

# COMPOUND, READOUT NAME, OBSERVED RESULT
measured = [
    ("Cc1ccccc1NC(=O)CSC1=NCCN1", "Potency", "inactive"),
    ("O=C(Nc1nnc(C2CC(=O)N(c3ccc(Cl)cc3)C2)s1)c1ccco1 (stereo unspecified)", "Potency", "inactive"),
    ("COc1cc(/C=C2/C(=O)NN(c3cccc(Cl)c3)C2=O)cc(Br)c1O", "Potency", "inactive"),
    ("CCN1CCN(C(=O)c2cc3cc4ccc(OC)cc4nc3s2)CC1", "Potency", "inactive"),
    ("CCOC(=O)c1cccc(NC(=O)c2ccc(F)cc2F)c1", "Potency", "inactive"),
]

// returns reported Potency for input `CCCCNC(=O)CSc1nc2ccc(NC(=O)CSc3nnc(COc4ccccc4C)n3C)cc2s1`
inactive

// returns reported Potency for input `N/C(=N/O)c1cccn1Cc1ccccc1[N+](=O)[O-]`
inactive

// returns reported Potency for input `FC(F)(F)c1ccccc1-c1nc(-n2ccnc2)c2ccccc2n1`
inactive

// returns reported Potency for input `N/C(=N\OC(=O)CCCC(=O)O)c1ncc(C(F)(F)F)cc1Cl`
inactive

// returns reported Potency for input `O=c1c([N+](=O)[O-])cccn1Cc1ccc(F)cc1Cl`
11.6 µM (active)

// returns reported Potency for input `Cc1cc(C)nc(-n2nc(C)cc2NC(=O)c2ccc(F)cc2F)n1`
4.11 µM (active)

====

- TEST NAME: qHTS for Inhibitors of human tyrosyl-DNA phosphodiesterase 1 (TDP1): qHTS in cells in presence of CPT; also: nearly all actives have a fitted effect of over 55% in size
- SETTINGS: chicken DT40 Tdp1-/-;hTDP1 cells + 20 nM CPT, ATP luminescence, 48 h; series mostly up to 46.2 µM
Among all 420,000 compounds or so, about 50,000 (12%) were called active. Inconclusive results (about 26%) are left out. Calls follow the shape of the dose curve; as a rule, active = well fitted inhibition curve with a large enough effect; inconclusive = small, poorly fitted or top-dose-only effect; inactive = flat fitted curve, though single readings scatter. Shown is part of a subset that was picked to be rich in actives.
The categories you may choose from are T = active, F = inactive

Worked examples, 5 compounds total:
# COMPOUND, CLASS
records = [
    ("Nn1c(SCC(=O)Nc2nccs2)nnc1-c1ccco1", "F"),
    ("COc1cccc(/C=C2\\Sc3ccc(C(=O)NCC4CCCO4)cc3N(C)C2=O)c1 (stereo not given)", "T"),
    ("CCCCN(C(=O)CSCC(=O)Nc1ccc(OC)cc1)c1c(N)n(CCC)c(=O)[nH]c1=O", "F"),
    ("CC(C)CCNC(=O)CC1C(=O)N(Cc2ccccc2)C(C)c2nc3ccccc3n21 (stereo not given)", "F"),
    ("O=S1(=O)C[C@@H](N2CCN(CCO)CC2)[C@H](COCc2ccccc2)N1", "F"),
]

Outcome logged for CSCCC(NC(=O)c1ccc(Cl)cc1Cl)C(=O)NNC(=O)c1csc(N2CCOCC2)n1 (stereo not given) in this assay:
F

====

- TEST NAME: qHTS for Inhibitors of human tyrosyl-DNA phosphodiesterase 1 (TDP1): qHTS in cells in presence of CPT; also: nearly all actives have a fitted effect of over 55% in size; also: potency is read from the fitted curve at half-maximal effect
- SETTINGS: chicken DT40 Tdp1-/-;hTDP1 cells + 20 nM CPT, ATP luminescence, 48 h; series mostly up to 46.2 µM
The campaign covered roughly 420,000 compounds. About 50,000 (12%) were called active. Another 26% or so got no clear call; they are omitted. The full list was thinned out, with actives kept by preference.
READOUT NAME: Potency

Would you please look over these solved cases?
# SUBSTANCE SMILES, Potency
records = [
    ("Cc1cc(C(=O)N/N=C\\C(Br)=C\\c2ccccc2)c(C)o1", "8.2 µM (active)"),
    ("Cc1cc(C(=O)NCCc2ccc(Cl)cc2)c(C)o1", "inactive"),
    ("CC(C)C(=O)Nc1ccc2c3c(cccc13)CC2", "inactive"),
    ("C=CCOc1cccc(CNCc2cccnc2)c1", "inactive"),
    ("CCOC(=O)Cn1c(O)c(N=NC(=O)CNC(=O)Cc2ccccc2)c2ccccc21", "inactive"),
]

Now consider a different molecule.
// returns reported Potency for input `CC(=C/c1ccccc1)/C=N/NC(=O)c1cc(C)oc1C`
inactive

Entry source: PubChem BioAssay AID686979
